src = PubChem BioAssay (NCI)

protocol-description: NCI Yeast Anticancer Drug Screen. Data for the rad14 strain (AID 159);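 note: 0% = growth of vehicle-treated control cultures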
details: S. cerevisiae rad14 strain growth inhibition; at 33.0 µM
The panel holds about 79,000 compounds, 15% with a hit somewhere; the sample as a whole holds those more often. The source made the active and inactive calls. Cut-off read from the data, not from the text of the source: active = growth inhibition above about 70%; inactive = the rest.
Answer with one of the outcomes given here: 1 (yes) = active, 0 (no) = inactive

Examples with answers:
NC(=O)c1c([N+](=O)[O-])cc(C(F)(F)F)cc1[N+](=O)[O-] ... 0 (no)
CCCCCCCCCCCCCCCCCC(=O)NCCCN(C)C ... 1 (yes)
CCOC1(c2cccc([N+](=O)[O-])c2)c2ccccc2Oc2ccccc21 ... 0 (no)

Q) What did this assay record as the result for Cc1ccc(CC2(OCCN(C)C)CCC(C(C)(C)C)CC2)cc1 (stereo not drawn) ?
A) 1 (yes)

Q) What do you get for O=C1OC(OC/C(Br)=C(\Br)COC2OC(=O)C(Cl)=C2Cl)C(Cl)=C1Cl (stereo not drawn) ?
A) 0 (no)

Q) What do you get for `Cc1cc(NCCCCCCCCNc2cc(C)nc3cc(N)ccc23)c2ccc(N)cc2n1` ?
A) 1 (yes)

Q) What do you get for `CCCCCCOC(=O)NCCOC(=O)Nc1ccccc1` ?
A) 0 (no)

Q) What do you get for `CCN(CC)CCOc1cc(C)c2cc(Cc3ccccc3)ccc2n1` ?
A) 0 (no)

Q) What do you get for `COc1ccc(/C=C/C(=O)c2ccccc2)cc1OC` ?
A) 0 (no)

Q) What do you get for `CCOC(=O)c1[nH]n(-c2ccccc2)c(=O)c1C=NC(=S)C(N)=S` ?
A) 1 (yes)

Q) What do you get for `CCO/C(C)=C(/C#N)C(N)=S` ?
A) 0 (no)

Q) What do you get for `O=c1[nH]c(-c2ccccc2)nc2c1sc1nc3ccccc3n12` ?
A) 0 (no)

Q) What do you get for `CN(C)[C@@H]1C(=O)C(C(N)=O)=C(O)[C@@]2(O)C(=O)C3=C(O)c4c(O)cccc4C[C@H]3C[C@@H]12` ?
A) 1 (yes)
